test: Cytotoxicity against african green monkey vero cells by MTT assay; format: cell-based; settings: chlorocebus sabaeus
Catalogue of compounds with associated log10(CC50)
Friendly reminder: values = log10 of CC50, unit µg/mL.

# annotated cases, reported log10(CC50) shown
CC(=O)n1nc(N2CCCC2)c(C#N)c1N ... 3.45
CC(=O)n1nc(N2CCCCC2)c(C#N)c1N ... 3.00
Cc1cc(O)n2nc(N3CCOCC3)c(C#N)c2n1 ... 1.80
N#Cc1nnc2c(C#N)c(N3CCCCC3)nn2c1N ... 3.15
Cc1ccc(C)n1-c1[nH]nc(N2CCCCC2)c1C#N ... 3.15
N#Cc1c(N2CCOCC2)n[nH]c1N ... 3.37

Input: log10(CC50) for CC(=O)c1nnc2c(C#N)c(N3CCCCC3)nn2c1C ?
Output: 2.49
